Test: chemical genetic growth profiling, strain panel (AID 1159580);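 note: tested at 20 µM; growth read once vehicle control cultures reached saturation at 30 °C; lower values mean less growth of the strain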
Settings: S. cerevisiae deletion strains, growth OD, locus YJL168C, strain set2
In all, about 5,500 compounds went through this assay and about 2,000 (36%) were called active. About 18% were inconclusive and are not listed. Cut-off read from the data, not from the text of the source: active = normalized growth mostly below about 0.91 (no sharp cut-off); inconclusive = no clear call, values can overlap the other calls; inactive = mostly above about 0.92. The list shows a part of the results.
Permitted responses: active, inactive

// query State the result this test recorded for CC(N=C(NC#N)Nc1ccncc1)C(C)(C)C (stereo not given) .
// result inactive

// query State the result this test recorded for CC(C)CCCC(C)[C@H]1CCC2C3CC[C@@H]4C[C@H](O)CC[C@]4(C)C3CC[C@@]21C (stereo not given in full) .
// result inactive

// query State the result this test recorded for `CC(=O)Oc1ccc(O)cc1` .
// result inactive

// query State the result this test recorded for CC(=O)O[C@@H]1CC2C(C)(C)[C@H](O)C=C[C@]2(C)C2CC[C@]3(C)C(=CC(=O)O[C@H]3c3ccoc3)[C@@]21C (stereo not given in full) .
// result inactive

// query State the result this test recorded for `CNCCCC12CCC(c3ccccc31)c1ccccc12` .
// result inactive

// query State the result this test recorded for `CN(C)[C@@H]1C(=O)C(C(N)=O)=C(O)[C@@]2(O)C(=O)C3=C(O)c4c(O)ccc(Cl)c4[C@@H](O)[C@H]3C[C@@H]12` .
// result inactive

// query State the result this test recorded for `C[C@H]1c2cccc(O)c2C(O)=C2C(=O)[C@]3(O)C(O)=C(C(N)=O)C(=O)[C@@H](N(C)C)[C@@H]3[C@@H](O)[C@@H]21` .
// result inactive

// query State the result this test recorded for CC(=O)O[C@@H]1CC2C(C)(C)C(=O)C=C[C@]2(C)C2CC[C@]3(C)C(=CC(=O)O[C@H]3c3ccoc3)[C@@]21C (stereo not given in full) .
// result inactive

// query State the result this test recorded for CC1(C)CC2C1CC[C@]1(CBr)CCC3C(CC(=O)O)C(=O)O[C@@]32C1 (stereo not given in full) .
// result inactive

// query State the result this test recorded for CC(C)CCCC(C)[C@H]1CCC2C3CC=C4C[C@@H](O)CC[C@]4(C)C3CC[C@@]21C (stereo not given in full) .
// result inactive

// query State the result this test recorded for CC(C)CCCC(C)C1CCC2C3=CC[C@H]4C[C@@H](O)CC[C@]4(C)C3CC[C@@]21C (stereo not given in full) .
// result inactive

// query State the result this test recorded for `CC(=O)Oc1cccc(O)c1` .
// result inactive

// query State the result this test recorded for CC(C)CCCC(C)[C@H]1CCC2C3CC=C4CC(=O)CC[C@]4(C)C3CC[C@@]21C (stereo not given in full) .
// result inactive

// query State the result this test recorded for CC(=O)O[C@@H]1C=C[C@@]2(C)C(C[C@@H](OC(C)=O)[C@@]3(C)C4=CC(=O)O[C@@H](c5ccoc5)[C@]4(C)CCC23)C1(C)C (stereo not given in full) .
// result active

// query State the result this test recorded for CC(=O)O[C@H]1CC[C@@]2(C)C(C[C@@H](OC(C)=O)[C@@]3(C)C4=CC(=O)O[C@@H](c5ccoc5)[C@]4(C)CCC23)C1(C)C (stereo not given in full) .
// result inactive

// query State the result this test recorded for `C[n+]1ccccc1/C=N/O` .
// result inactive

// query State the result this test recorded for `C=C1c2cccc(O)c2C(O)=C2C(=O)[C@]3(O)C(O)=C(C(N)=O)C(=O)[C@@H](N(C)C)[C@@H]3[C@@H](O)[C@H]12` .
// result inactive

// query State the result this test recorded for CC12CCC3C(CC3(C)C)C(C)(CCC1=O)O2 (stereo not given) .
// result inactive

// query State the result this test recorded for O=P1(N(CCCl)CCCl)NCCCO1 (stereo not given) .
// result inactive

// query State the result this test recorded for CC(=O)OC1CCC2(C)C(CC(OC(C)=O)C3(C)C4=CC(=O)OC(c5ccoc5)C4(C)CCC23)C1(C)C (stereo not given) .
// result inactive

// query State the result this test recorded for `C=C1C[C@]23C[C@@]1(O)CC[C@H]2[C@@]12C=C[C@H](O)[C@@](C)(C(=O)O1)[C@H]2[C@@H]3C(=O)O` .
// result inactive

// query State the result this test recorded for `CCOC(=O)[C@H](CCc1ccccc1)N[C@@H](C)C(=O)N1CCC[C@H]1C(=O)O` .
// result inactive

// query State the result this test recorded for CC(C)CCCC(C)C1CCC2C3CC(=O)[C@H]4C[C@@H](O)CC[C@]4(C)C3CC[C@]12C (stereo not given in full) .
// result inactive

// query State the result this test recorded for `CN(C)[C@@H]1C(=O)C(C(N)=O)=C(O)[C@@]2(O)C(=O)C3=C(O)c4c(O)cccc4[C@@](C)(O)[C@H]3[C@H](O)[C@@H]12` .
// result inactive

// query State the result this test recorded for `NS(=O)(=O)c1cc2c(cc1Cl)NC(CSCc1ccccc1)=NS2(=O)=O` .
// result inactive
